experiment: chemical genetic growth profiling, strain panel (AID 1159580);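 also: tested at 20 µM; growth read once vehicle control cultures reached saturation at 30 °C; 1 = growth at the plate median or of vehicle wells; lower values mean less growth of the strain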; conditions: S. cerevisiae deletion strains, growth OD, locus YEL037C, strain rad23, stronger effect = lower value
Among all 5,500 compounds or so, about 2,000 (36%) were called active. Another 18% or so got no clear call; they are omitted. The list shows a part of the results.
Provide the recorded normalized growth for the entries that follow.
Lab note: write the figure by itself, no unit.

Look up normalized growth: CCCCCCCCNC(C)C(O)c1ccc(SC(C)C)cc1 (stereo unspecified)
0.0554

Try this compound next: CCOC(=O)CCC(=O)O[C@H]1[C@H](O[C@@H]2[C@@H](C)[C@H](O[C@H]3C[C@@](C)(OC)[C@@H](O)[C@H](C)O3)[C@@H](C)C(=O)O[C@H](CC)[C@@](C)(O)[C@H](O)[C@@H](C)C(=O)[C@H](C)C[C@@]2(C)O)O[C@H](C)C[C@@H]1N(C)C
1.01

Try this compound next: CC(CCc1ccccc1)NC(C)C(O)c1ccc(O)cc1 (stereo unspecified)
1

Try this compound next: CC(=O)OCC(=O)[C@H]1CCC2C3CCC4=CC(=O)CC[C@]4(C)C3CC[C@@]21C (stereo partly specified)
0.977

Try this compound next: CNC(C)[C@H](O)c1ccccc1 (stereo partly specified)
0.986

Try this compound next: CC(=O)OCC(=O)[C@@]1(O)CCC2C3CCC4=CC(=O)CC[C@]4(C)C3C(=O)C[C@@]21C (stereo partly specified)
0.976
